pIC50: recorded values
target: LYN (UniProt P07948); test: pIC50, kinobeads binding competition; conditions: cell material: Lysate mix
Sequence (P07948 whole entry, looked up): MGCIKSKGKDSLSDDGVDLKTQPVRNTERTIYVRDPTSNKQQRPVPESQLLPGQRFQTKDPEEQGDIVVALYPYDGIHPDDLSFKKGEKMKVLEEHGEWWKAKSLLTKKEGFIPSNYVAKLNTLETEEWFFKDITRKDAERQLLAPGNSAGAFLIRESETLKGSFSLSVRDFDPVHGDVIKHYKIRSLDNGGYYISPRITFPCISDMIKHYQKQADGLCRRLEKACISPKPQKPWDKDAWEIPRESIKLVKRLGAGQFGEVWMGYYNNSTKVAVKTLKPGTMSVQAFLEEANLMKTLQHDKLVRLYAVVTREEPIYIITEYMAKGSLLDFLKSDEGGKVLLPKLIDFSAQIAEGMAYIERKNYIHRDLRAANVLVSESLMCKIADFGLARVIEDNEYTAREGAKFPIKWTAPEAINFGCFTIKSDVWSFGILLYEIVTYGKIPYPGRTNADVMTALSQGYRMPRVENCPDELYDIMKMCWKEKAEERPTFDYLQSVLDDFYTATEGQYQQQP
API note: the answer field is a bare number with no unit suffix.

These recorded examples may help you get a feel for the data.
In [3]: df
Out[3]:
                            substancesmiles          testedsystem  endpointresult
0  C#CCNC(=O)c1cc(Nc2cc(C3CC3)[nH]n2)nc(N2CCN(Cc3ccc(S(=O)(=O)F)cc3)CC2)n1  LYN (UniProt P07948)            6.03
1  CCNC(=O)c1cc(Nc2cc(C)[nH]n2)nc(N2CCN(Cc3ccc(S(=O)(=O)F)cc3)CC2)n1  LYN (UniProt P07948)            5.98
2  C#CCNC(=O)c1cc(Nc2cc(C)[nH]n2)nc(N2CCN(Cc3ccc(S(=O)(=O)F)cc3)CC2)n1  LYN (UniProt P07948)            5.54

Let us examine a further case.
Reported pIC50 (LYN (UniProt P07948)) for entry CCNC(=O)c1cc(Nc2cc(C3CC3)[nH]n2)nc(N2CCN(Cc3ccc(S(=O)(=O)F)cc3)CC2)n1 is 5.92

###

target: EGFR (UniProt P00533); assay: pIC50, kinobeads binding competition; conditions: cell material: Lysate mix
Sequence (P00533 whole entry): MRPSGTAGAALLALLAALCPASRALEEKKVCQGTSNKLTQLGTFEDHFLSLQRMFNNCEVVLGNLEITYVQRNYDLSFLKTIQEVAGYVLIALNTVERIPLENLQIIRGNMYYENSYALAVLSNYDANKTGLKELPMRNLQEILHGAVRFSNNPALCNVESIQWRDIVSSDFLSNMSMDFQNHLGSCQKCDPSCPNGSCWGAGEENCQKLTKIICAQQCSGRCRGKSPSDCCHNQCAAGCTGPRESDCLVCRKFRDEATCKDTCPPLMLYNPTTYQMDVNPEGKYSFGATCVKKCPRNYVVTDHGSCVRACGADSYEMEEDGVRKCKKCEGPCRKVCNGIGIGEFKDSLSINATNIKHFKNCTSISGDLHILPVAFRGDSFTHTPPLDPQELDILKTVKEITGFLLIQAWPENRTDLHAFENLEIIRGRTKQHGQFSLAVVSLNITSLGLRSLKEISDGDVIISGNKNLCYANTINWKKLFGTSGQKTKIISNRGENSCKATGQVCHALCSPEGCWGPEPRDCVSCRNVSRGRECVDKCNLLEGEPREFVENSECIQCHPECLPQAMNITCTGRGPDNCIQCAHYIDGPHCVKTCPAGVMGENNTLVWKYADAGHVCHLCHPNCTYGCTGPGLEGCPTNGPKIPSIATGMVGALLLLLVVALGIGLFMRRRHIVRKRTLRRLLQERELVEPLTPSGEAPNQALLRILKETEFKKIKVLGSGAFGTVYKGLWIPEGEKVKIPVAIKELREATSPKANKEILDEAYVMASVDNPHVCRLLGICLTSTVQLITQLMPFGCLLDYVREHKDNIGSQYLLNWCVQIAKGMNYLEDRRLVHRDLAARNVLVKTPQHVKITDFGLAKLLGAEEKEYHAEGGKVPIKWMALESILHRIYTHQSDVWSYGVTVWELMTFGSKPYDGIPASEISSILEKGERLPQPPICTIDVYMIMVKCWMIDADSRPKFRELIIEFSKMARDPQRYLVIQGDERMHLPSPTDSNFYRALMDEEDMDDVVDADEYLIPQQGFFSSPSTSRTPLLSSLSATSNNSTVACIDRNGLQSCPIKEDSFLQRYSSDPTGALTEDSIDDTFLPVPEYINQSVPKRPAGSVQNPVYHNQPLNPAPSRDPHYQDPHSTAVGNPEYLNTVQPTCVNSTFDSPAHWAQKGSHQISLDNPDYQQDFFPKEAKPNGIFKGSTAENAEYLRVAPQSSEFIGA
pIC50 for assorted molecules
Please reply with the value in numeric form only.

See these solved cases before continuing.
>>> df
                            substancesmiles  reportedmetric  endpointresult
0  C#CCNC(=O)c1cc(Nc2cc(C3CC3)[nH]n2)nc(N2CCN(Cc3ccc(S(=O)(=O)F)cc3)CC2)n1           pIC50             5.4
1  CCNC(=O)c1cc(Nc2cc(C)[nH]n2)nc(N2CCN(Cc3ccc(S(=O)(=O)F)cc3)CC2)n1           pIC50            5.78
2  CCNC(=O)c1cc(Nc2cc(C3CC3)[nH]n2)nc(N2CCN(Cc3ccc(S(=O)(=O)F)cc3)CC2)n1           pIC50             5.3

Next:
Entry C#CCNC(=O)c1cc(Nc2cc(C)[nH]n2)nc(N2CCN(Cc3ccc(S(=O)(=O)F)cc3)CC2)n1 , EGFR (UniProt P00533) data, pIC50 value: 5.56

###

target: MAP3K15 (UniProt Q6ZN16); assay: pIC50, kinobeads binding competition; settings: cell material: Lysate mix
reportedMetric: pIC50

Worked examples follow.
                                   compound              testedsystem  reportedmetric  endpointresult
0  CCNC(=O)c1cc(Nc2cc(C3CC3)[nH]n2)nc(N2CCN(Cc3ccc(S(=O)(=O)F)cc3)CC2)n1  MAP3K15 (UniProt Q6ZN16)           pIC50          < 4.52
1  C#CCNC(=O)c1cc(Nc2cc(C3CC3)[nH]n2)nc(N2CCN(Cc3ccc(S(=O)(=O)F)cc3)CC2)n1  MAP3K15 (UniProt Q6ZN16)           pIC50          < 4.52
2  CCNC(=O)c1cc(Nc2cc(C)[nH]n2)nc(N2CCN(Cc3ccc(S(=O)(=O)F)cc3)CC2)n1  MAP3K15 (UniProt Q6ZN16)           pIC50            4.94
3  O=C(NCCNC(=O)c1cc(Nc2cc(C3CC3)[nH]n2)nc(N2CCN(Cc3ccc(S(=O)(=O)F)cc3)CC2)n1)OC1CC/C=C/CCC1 (stereo unspecified)  MAP3K15 (UniProt Q6ZN16)           pIC50          < 4.52
4  Cc1cc(Nc2cc(C(=O)NCCNC(=O)OC3CC/C=C/CCC3)nc(N3CCN(Cc4ccc(S(=O)(=O)F)cc4)CC3)n2)n[nH]1 (stereo unspecified)  MAP3K15 (UniProt Q6ZN16)           pIC50          < 4.52

Reported pIC50 for C#CCNC(=O)c1cc(Nc2cc(C)[nH]n2)nc(N2CCN(Cc3ccc(S(=O)(=O)F)cc3)CC2)n1 was 4.92

###

Listed next: entries and their corresponding pIC50.
target: PRPF4B (UniProt Q13523); test: pIC50, kinobeads binding competition; details: cell material: Lysate mix
Sequence (Q13523 whole entry, looked up): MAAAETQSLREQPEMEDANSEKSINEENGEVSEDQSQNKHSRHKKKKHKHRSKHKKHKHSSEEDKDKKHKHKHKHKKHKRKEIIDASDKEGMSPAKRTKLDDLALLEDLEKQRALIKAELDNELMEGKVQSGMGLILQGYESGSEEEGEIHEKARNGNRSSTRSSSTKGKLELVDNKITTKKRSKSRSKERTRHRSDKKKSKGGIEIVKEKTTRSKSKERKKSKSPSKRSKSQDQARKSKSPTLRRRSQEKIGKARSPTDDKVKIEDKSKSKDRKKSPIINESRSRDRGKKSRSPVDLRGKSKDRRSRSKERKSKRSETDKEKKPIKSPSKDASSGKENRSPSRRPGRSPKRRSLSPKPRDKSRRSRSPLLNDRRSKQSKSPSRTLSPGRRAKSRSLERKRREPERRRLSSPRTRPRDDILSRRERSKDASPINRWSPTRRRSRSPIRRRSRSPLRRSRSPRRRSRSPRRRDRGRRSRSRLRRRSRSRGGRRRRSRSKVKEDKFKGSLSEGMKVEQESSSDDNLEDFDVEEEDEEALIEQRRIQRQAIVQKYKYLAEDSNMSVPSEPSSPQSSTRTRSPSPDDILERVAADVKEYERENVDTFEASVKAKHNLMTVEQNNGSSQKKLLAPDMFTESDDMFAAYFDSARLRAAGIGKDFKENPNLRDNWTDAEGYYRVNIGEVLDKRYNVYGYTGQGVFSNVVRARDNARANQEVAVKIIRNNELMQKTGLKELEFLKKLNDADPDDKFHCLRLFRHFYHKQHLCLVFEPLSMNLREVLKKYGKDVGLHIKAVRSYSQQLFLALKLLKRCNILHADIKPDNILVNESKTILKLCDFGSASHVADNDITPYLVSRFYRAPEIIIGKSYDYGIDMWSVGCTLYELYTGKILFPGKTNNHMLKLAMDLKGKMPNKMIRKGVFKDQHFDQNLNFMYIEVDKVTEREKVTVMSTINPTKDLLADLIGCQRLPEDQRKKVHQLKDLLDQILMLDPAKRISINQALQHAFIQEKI

Summary for this compound, C#CCNC(=O)c1cc(Nc2cc(C3CC3)[nH]n2)nc(N2CCN(Cc3ccc(S(=O)(=O)F)cc3)CC2)n1 : pIC50 is < 4.52

###

biological target: DYRK1B (UniProt Q9Y463); assay: pIC50, kinobeads binding competition; settings: cell material: Lysate mix
Sequence (Q9Y463 whole entry, looked up): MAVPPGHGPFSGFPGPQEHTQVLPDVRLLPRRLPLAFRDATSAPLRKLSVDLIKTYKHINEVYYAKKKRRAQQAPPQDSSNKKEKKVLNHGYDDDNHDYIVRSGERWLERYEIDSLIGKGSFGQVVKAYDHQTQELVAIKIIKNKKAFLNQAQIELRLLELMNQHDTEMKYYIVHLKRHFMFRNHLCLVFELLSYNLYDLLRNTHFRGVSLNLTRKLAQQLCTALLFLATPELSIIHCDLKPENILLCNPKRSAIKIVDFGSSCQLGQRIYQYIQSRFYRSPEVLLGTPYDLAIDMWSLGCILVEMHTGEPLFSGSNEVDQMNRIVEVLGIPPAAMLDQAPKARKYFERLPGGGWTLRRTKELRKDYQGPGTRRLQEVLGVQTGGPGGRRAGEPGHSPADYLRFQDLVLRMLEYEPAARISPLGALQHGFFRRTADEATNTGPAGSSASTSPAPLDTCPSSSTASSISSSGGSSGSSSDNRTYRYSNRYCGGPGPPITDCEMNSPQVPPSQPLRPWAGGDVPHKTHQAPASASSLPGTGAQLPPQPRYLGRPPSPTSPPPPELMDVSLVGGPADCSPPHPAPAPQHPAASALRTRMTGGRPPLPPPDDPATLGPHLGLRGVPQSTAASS
reportedMetric: pIC50

Some compounds with known pIC50 results, for comparison:
>>> print(df.to_string())
                                   compound  reportedmetric  endpointresult
0  CCNC(=O)c1cc(Nc2cc(C3CC3)[nH]n2)nc(N2CCN(Cc3ccc(S(=O)(=O)F)cc3)CC2)n1           pIC50            5.08
1  Cc1cc(Nc2cc(C(=O)NCCNC(=O)OC3CC/C=C/CCC3)nc(N3CCN(Cc4ccc(S(=O)(=O)F)cc4)CC3)n2)n[nH]1 (stereo unspecified)           pIC50          < 4.52
2  CCNC(=O)c1cc(Nc2cc(C)[nH]n2)nc(N2CCN(Cc3ccc(S(=O)(=O)F)cc3)CC2)n1           pIC50          < 4.52
3  O=C(NCCNC(=O)c1cc(Nc2cc(C3CC3)[nH]n2)nc(N2CCN(Cc3ccc(S(=O)(=O)F)cc3)CC2)n1)OC1CC/C=C/CCC1 (stereo unspecified)           pIC50          < 4.52
4  C#CCNC(=O)c1cc(Nc2cc(C3CC3)[nH]n2)nc(N2CCN(Cc3ccc(S(=O)(=O)F)cc3)CC2)n1           pIC50          < 4.52

Consider now this further compound.
Noted for C#CCNC(=O)c1cc(Nc2cc(C)[nH]n2)nc(N2CCN(Cc3ccc(S(=O)(=O)F)cc3)CC2)n1 : its pIC50 reads < 4.52

###

Quick reference: pIC50 of the listed items.
target: BMPR1A (UniProt P36894); experiment: pIC50, kinobeads binding competition; conditions: cell material: Lysate mix
Sequence (P36894 whole entry): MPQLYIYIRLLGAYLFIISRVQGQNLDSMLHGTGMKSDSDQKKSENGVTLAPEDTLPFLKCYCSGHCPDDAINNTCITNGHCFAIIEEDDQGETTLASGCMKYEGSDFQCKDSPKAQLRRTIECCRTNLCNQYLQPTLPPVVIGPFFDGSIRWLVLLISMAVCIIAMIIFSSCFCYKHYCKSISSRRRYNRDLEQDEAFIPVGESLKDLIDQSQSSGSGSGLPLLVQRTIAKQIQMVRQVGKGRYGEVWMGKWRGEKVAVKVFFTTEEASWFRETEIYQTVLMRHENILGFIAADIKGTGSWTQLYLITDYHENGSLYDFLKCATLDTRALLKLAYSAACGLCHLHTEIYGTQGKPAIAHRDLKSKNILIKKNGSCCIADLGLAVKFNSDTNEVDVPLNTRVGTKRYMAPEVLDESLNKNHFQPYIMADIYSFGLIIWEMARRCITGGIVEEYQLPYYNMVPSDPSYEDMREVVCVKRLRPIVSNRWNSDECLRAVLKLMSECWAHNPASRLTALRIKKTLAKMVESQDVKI

>>> df
                                   compound             testedsystem  endpointresult
0  C#CCNC(=O)c1cc(Nc2cc(C3CC3)[nH]n2)nc(N2CCN(Cc3ccc(S(=O)(=O)F)cc3)CC2)n1  BMPR1A (UniProt P36894)            4.99
1  C#CCNC(=O)c1cc(Nc2cc(C)[nH]n2)nc(N2CCN(Cc3ccc(S(=O)(=O)F)cc3)CC2)n1  BMPR1A (UniProt P36894)          < 4.52
2  CCNC(=O)c1cc(Nc2cc(C3CC3)[nH]n2)nc(N2CCN(Cc3ccc(S(=O)(=O)F)cc3)CC2)n1  BMPR1A (UniProt P36894)            4.87
3  O=C(NCCNC(=O)c1cc(Nc2cc(C3CC3)[nH]n2)nc(N2CCN(Cc3ccc(S(=O)(=O)F)cc3)CC2)n1)OC1CC/C=C/CCC1 (stereo unspecified)  BMPR1A (UniProt P36894)          < 4.52
4  Cc1cc(Nc2cc(C(=O)NCCNC(=O)OC3CC/C=C/CCC3)nc(N3CCN(Cc4ccc(S(=O)(=O)F)cc4)CC3)n2)n[nH]1 (stereo unspecified)  BMPR1A (UniProt P36894)          < 4.52

Now, please, on to the next compound.
# pIC50 of CCNC(=O)c1cc(Nc2cc(C)[nH]n2)nc(N2CCN(Cc3ccc(S(=O)(=O)F)cc3)CC2)n1 = < 4.52

###

target: CLK3 (UniProt P49761); test: pIC50, kinobeads binding competition; conditions: cell material: Lysate mix
Sequence (P49761 whole entry, looked up): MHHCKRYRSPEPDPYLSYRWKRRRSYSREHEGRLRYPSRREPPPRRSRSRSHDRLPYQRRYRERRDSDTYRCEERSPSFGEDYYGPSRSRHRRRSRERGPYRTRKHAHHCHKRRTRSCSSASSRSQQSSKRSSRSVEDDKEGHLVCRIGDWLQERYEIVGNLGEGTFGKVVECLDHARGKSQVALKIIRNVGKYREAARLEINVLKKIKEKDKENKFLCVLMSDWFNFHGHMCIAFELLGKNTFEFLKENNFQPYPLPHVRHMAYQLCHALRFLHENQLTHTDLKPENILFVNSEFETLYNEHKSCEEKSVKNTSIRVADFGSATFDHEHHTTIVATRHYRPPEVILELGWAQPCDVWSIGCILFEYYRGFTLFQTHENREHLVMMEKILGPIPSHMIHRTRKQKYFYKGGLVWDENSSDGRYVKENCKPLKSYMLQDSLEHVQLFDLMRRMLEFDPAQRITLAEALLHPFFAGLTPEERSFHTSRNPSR
reportedMetric: pIC50

>>> print(df.to_string())
                                   molecule           testedsystem  reportedmetric  endpointresult
0  O=C(NCCNC(=O)c1cc(Nc2cc(C3CC3)[nH]n2)nc(N2CCN(Cc3ccc(S(=O)(=O)F)cc3)CC2)n1)OC1CC/C=C/CCC1 (stereo not given)  CLK3 (UniProt P49761)           pIC50          < 4.52
1  C#CCNC(=O)c1cc(Nc2cc(C)[nH]n2)nc(N2CCN(Cc3ccc(S(=O)(=O)F)cc3)CC2)n1  CLK3 (UniProt P49761)           pIC50          < 4.52
2  CCNC(=O)c1cc(Nc2cc(C3CC3)[nH]n2)nc(N2CCN(Cc3ccc(S(=O)(=O)F)cc3)CC2)n1  CLK3 (UniProt P49761)           pIC50            4.85
3  CCNC(=O)c1cc(Nc2cc(C)[nH]n2)nc(N2CCN(Cc3ccc(S(=O)(=O)F)cc3)CC2)n1  CLK3 (UniProt P49761)           pIC50          < 4.52

Now take the following molecule into account.
C#CCNC(=O)c1cc(Nc2cc(C3CC3)[nH]n2)nc(N2CCN(Cc3ccc(S(=O)(=O)F)cc3)CC2)n1 yielded pIC50 of 5.15
